- METHOD_SUMMARY: Cmax in CD-1 IGS mouse at 50 mg/kg, po by LC-MS/MS analysis
- Type: ADME, organism-based
- Design: dose 50 mg/kg, route po
- RUN_PARAMETERS: in vivo
MEASURED_QUANTITY: Cmax (µg/mL)
Answers are plain numbers, in µg/mL.

# count of solved cases: 2
1. CC(=O)N1CCN([C@H]2CCC[C@@H](NC(=O)c3cc4c(F)ccc(C)c4[nH]3)C2)CC1	8.6
2. CC(=O)N1CCN(c2cccc(NC(=O)c3cc4c(F)ccc(C)c4[nH]3)c2)CC1	0.5

Attention now shifts to the item below.
Lab note: measured Cmax of `Cc1ccc(F)c2cc(C(=O)N[C@@H]3CCC[C@H](N4CCN5C(=O)CC[C@H]5C4)C3)[nH]c12` was 7.6
